- Test system: CCRF-CEM leukemia
- ASSAY_TEXT: NCI tumour cell line growth inhibition, 48 h
RECORDED_ENDPOINT: GI50

I have this compound here, Cc1ccc(S(=O)(=O)Nc2ccc(-c3cc(-c4cccc(F)c4)c(C#N)c(N)n3)cc2)cc1 , and I need its recorded GI50.
2.26 µM

I have this compound here, Cc1nccc2c3ccc(OCc4cn(-c5ccc(Cl)cc5)nn4)cc3n(CC(C)C)c12 , and I need its recorded GI50.
2.04 µM

I have this compound here, CCn1ccc(NS(=O)(=O)c2ccc(N)cc2)nc1=O , and I need its recorded GI50.
> 100 µM

I have this compound here, FC(F)(F)c1cc(Nc2ccc3cc(OCCCN4CCOCC4)ccc3n2)ccc1Cl , and I need its recorded GI50.
2.03 µM

* * *

Hi there, I'd appreciate the recorded TGI for every entry that follows.
- Tested on: MDA-MB-231 breast
- ASSAY_TEXT: NCI tumour cell line growth inhibition, 48 h

I have this compound here, O=[N+]([O-])c1cc2c([N+](=O)[O-])cccc2o1 , and I need its recorded TGI.
27.6 µM

I have this compound here, CCCNC(=O)N(C)C(=O)N1N=C(c2ccccc2)C1c1ccccc1 (stereo unspecified) , and I need its recorded TGI.
> 100 µM

I have this compound here, O=C(O[C@H]1CCN2C[C@H]3C[C@H](CN4C(=O)CCC[C@H]34)[C@@H]2C1)c1ccc(O)cc1 , and I need its recorded TGI.
> 100 µM

I have this compound here, Cc1cc(Cl)cc(Cc2cc(Cl)cc(C)c2O)c1O , and I need its recorded TGI.
8.22 µM

I have this compound here, CC1=CCC2CC1NC(=O)CCOCCC(=O)NC2(C)C (stereo unspecified) , and I need its recorded TGI.
> 100 µM

I have this compound here, CC(O)[C@@]1(c2ccccc2)CC2(CCN(C)CC2)O[C@H]1C (stereo partly specified) , and I need its recorded TGI.
> 100 µM

I have this compound here, Cc1nnc(Sc2nc(C#N)c(C#N)nc2Sc2nnc(C)s2)s1 , and I need its recorded TGI.
37.9 µM

I have this compound here, CC[C@H](C)[C@H](NC(=O)[C@@]1(O)[C@H](O)[C@]2(CC)C=CCN3CC[C@@]4(c5cc(Br)c(OC)cc5N(C)[C@@H]14)[C@@H]32)C(=O)OC , and I need its recorded TGI.
46.5 µM

I have this compound here, CCOC(=O)C(OP(=O)(OCC)OCC)C(F)(F)F (stereo unspecified) , and I need its recorded TGI.
> 100 µM

I have this compound here, C#Cc1cccc(NC(=O)c2ccc(NC(=O)CCl)cc2)c1 , and I need its recorded TGI.
> 82.5 µM

I have this compound here, CCCCC(=O)Nc1ccc2c(C)cc(-c3ccc(-c4cc(-c5ccc(C)cc5)cc(-c5ccc(-c6cc(C)c7ccc(NC(=O)CCCC)nc7n6)cc5)n4)cc3)nc2n1 , and I need its recorded TGI.
> 100 µM

I have this compound here, C[CH2][Sn]([CH2]C)([O]C(=O)c1ccc(OC)c(OC)c1OC)[O]C(=O)c1ccc(OC)c(OC)c1OC , and I need its recorded TGI.
> 100 µM

I have this compound here, COc1cccc(/C=C\c2ccc(O)cc2)c1 , and I need its recorded TGI.
> 100 µM

I have this compound here, CCCCCCCCOC(=O)c1cc([N+](=O)[O-])c(Sc2ncnc3nc[nH]c23)c([N+](=O)[O-])c1 , and I need its recorded TGI.
> 31.6 µM

I have this compound here, C[C@@H](Oc1cc(-n2cnc3ccc(OC[C@@H](O)CO)cc32)sc1C(N)=O)c1ccccc1Cl , and I need its recorded TGI.
> 25 µM

I have this compound here, CN(CCCn1ccnc1[N+](=O)[O-])CCCn1ccnc1[N+](=O)[O-] , and I need its recorded TGI.
> 100 µM

I have this compound here, COc1cccc(-c2c(-c3ccccc3)[nH]c(C)c2C(=O)ONC(=O)c2ccccc2)c1 , and I need its recorded TGI.
22.9 µM

I have this compound here, CCCCc1c2c(c(C)c3c1C(=O)OC3)Oc1ccccc1O2 , and I need its recorded TGI.
> 55.6 µM

I have this compound here, O=[N+]([O-])C(=C/c1cccs1)/C(=C\c1cccs1)[N+](=O)[O-] , and I need its recorded TGI.
0.864 µM

I have this compound here, O=C(/C=C/OC(=O)c1cccc(Cl)c1)c1ccc(Cl)cc1 , and I need its recorded TGI.
> 100 µM

I have this compound here, Nc1nc(=S)n(-c2ccc(Cl)cc2)c2nc3ccccc3cc12 , and I need its recorded TGI.
> 100 µM

I have this compound here, C/C(=N/Nc1nc(C)cc(=O)[nH]1)C(=O)O , and I need its recorded TGI.
> 100 µM

I have this compound here, C=CCc1c(O)c(C(=O)/C=C/c2ccccc2)c(OC)c2ccoc12 , and I need its recorded TGI.
11.3 µM

I have this compound here, COC(=O)/C(C#N)=C(\N)c1c(C)c2ccccc2oc1=N , and I need its recorded TGI.
> 100 µM

I have this compound here, CN(C)c1ccc(N=C2C=CC(=O)c3ccccc32)cc1 , and I need its recorded TGI.
12.7 µM

I have this compound here, C#CC1NC(=O)C1N(CC)CC (stereo unspecified) , and I need its recorded TGI.
> 100 µM
